Hello, the source for this data is ChEMBL document CHEMBL5365457, in case you need it.

# System: MDA-MB-453
# experiment.description: Cytotoxicity against human MDA-MB-453 cells assessed as inhibition of cell growth incubated for 72 hrs by MTT assay
# Assay type: functional, cell-based
# test.conditions: MDA-MB-453, 72 h
measurement.type: pIC50
Entry type: numeric. Quantity: pIC50, the -log10 of concentration in molar units.

The cases that follow already have their pIC50 on record.
{"smiles.data": "CCCCNNC(=O)c1cnc(Nc2cccc3ccccc23)cn1", "experimental.target": "MDA-MB-453", "pIC50": 5.33}
{"smiles.data": "CCCNNC(=O)c1cnccn1", "experimental.target": "MDA-MB-453", "pIC50": 5.60}

*Q* What value of pIC50 has been recorded for this entry: "CCCNNC(=O)c1cnc(NC(=O)c2ccc3[nH]ccc3c2)cn1"
*A* 5.66

*Q* What value of pIC50 has been recorded for this entry: "CCCCNNC(=O)c1ccc(Br)cc1"
*A* 4.60

*Q* What value of pIC50 has been recorded for this entry: "CCCCNNC(=O)c1cnccn1"
*A* 5.60

*Q* What value of pIC50 has been recorded for this entry: "CCCNNC(=O)c1cnc(NC(C)=O)cn1"
*A* 5.71

*Q* What value of pIC50 has been recorded for this entry: "CCCNNC(=O)c1cnc(NCc2ccccc2)cn1"
*A* 5.56

*Q* What value of pIC50 has been recorded for this entry: "CCCCNNC(=O)c1cnc(N)cn1"
*A* 5.48

*Q* What value of pIC50 has been recorded for this entry: "CCCNNC(=O)c1cnc(N)cn1"
*A* 5.61

*Q* What value of pIC50 has been recorded for this entry: "CCCCNNC(=O)c1cnc(NCc2ccccc2)cn1"
*A* 5.48
